# Test system: Myotonic Dystrophy 1 affected patient fibroblasts (Coriell GM04602; 1600 CTG repeats)
# METHOD: DM1 foci reduction assay (CAG10-Cy3 FISH, average foci per nucleus)
# Type: cell-based
# STATED CONDITIONS: Homo sapiens, Fibroblast, 48 h, read-out: Foci Reduction in Fibroblast EC50, 48 h (nM)
ENDPOINT LABEL: EC50

Solved entries:
CCN(CC)CCCC[C@H](NC(=O)[C@H](CC(C)C)NC(=O)[C@H](C)NC(=O)[C@H](Cc1ccccc1)NC(=O)c1ccc(C(C)(C)C)cc1)C(=O)N[C@@H](CO)C(=O)NCCOCCOCCOCCOCCOCCNC(=O)CCNC(=O)c1cc(NC(=O)c2nc(NC(=O)CCNC(=O)c3cc(NC(=O)c4nc(NC(=O)CCCNC(=O)c5cc(NC(=O)c6nc(NC(=O)CCNC(=O)c7cc(NC(=O)c8nccn8C)cn7C)cn6C)cn5C)cn4C)cn3C)cn2C)cn1C
> 500 nM
CCN(CC)CCCC[C@H](NC(=O)[C@H](CC(C)C)NC(=O)[C@H](C)NC(=O)[C@H](Cc1ccccc1)NC(=O)c1ccc(C(C)(C)C)cc1)C(=O)N[C@@H](CO)C(=O)NCCOCCOCCOCCOCCOCCNC(=O)c1cc(NC(=O)c2nc(NC(=O)c3cc(NC(=O)CCCNC(=O)c4nc(NC(=O)CCNC(=O)c5cc(NC(=O)c6nccn6C)cn5C)cn4C)cn3C)cn2C)cn1C
> 500 nM

*Q* Looking for the measured EC50 of CCN(CC)CCCC[C@H](NC(=O)CCCCOCCNC(=O)c1ccc(C(C)(C)C)cc1)C(=O)N[C@@H](CO)C(=O)NCCOCCOCCOCCOCCOCCNC(=O)CCNC(=O)c1nc(NC(=O)c2cc(NC(=O)CCNC(=O)c3nc(NC(=O)CCCNC(=O)c4cc(NC(=O)c5nc(NC(=O)CCNC(=O)c6cc(NC(=O)c7nccn7C)cn6C)cn5C)cn4C)cn3C)cn2C)cn1C , can you help?
*A* 100 to 500 nM

====

This listing pairs compounds with measured EC50.
# Test system: Myotonic Dystrophy 1 affected patient fibroblasts (Coriell GM04602; 1600 CTG repeats)
# METHOD: DM1 foci reduction assay (CAG10-Cy3 FISH, average foci per nucleus)
# Assay type: cell-based
# STATED CONDITIONS: Homo sapiens, Fibroblast, 48 h, read-out: Foci Reduction in Fibroblast EC50, 48 h (nM)

Solved entries:
CC(C)C[C@H](NC(=O)[C@H](Cc1ccccc1)NC(=O)[C@H](CCCCN(C)C(C)C)NC(=O)[C@@H]1C[C@@H]2CCCC[C@@H]2N1)C(=O)NCCOCCOCCOCCOCCOCCNC(=O)CCNC(=O)c1nc(NC(=O)c2cc(NC(=O)CCNC(=O)c3nc(NC(=O)CCCNC(=O)c4cc(NC(=O)c5nc(NC(=O)CCNC(=O)c6cc(NC(=O)c7nccn7C)cn6C)cn5C)cn4C)cn3C)cn2C)cn1C
100 to 500 nM
CCN(CC)CCCC[C@H](NC(=O)[C@H](CC(C)C)NC(=O)[C@H](C)NC(=O)[C@H](Cc1ccccc1)NC(=O)c1ccc(C(C)(C)C)cc1)C(=O)N[C@@H](CO)C(=O)NCCOCCOCCOCCOCCOCCOCCOCCOCCOCCOCCOCCOCCOCCOCCOCCNC(=O)CCNC(=O)c1nc(NC(=O)c2cc(NC(=O)CCNC(=O)c3nc(NC(=O)CCCNC(=O)c4cc(NC(=O)c5nc(NC(=O)CCNC(=O)c6cc(NC(=O)c7nccn7C)cn6C)cn5C)cn4C)cn3C)cn2C)cn1C
< 100 nM
CCN(CC)CCCC[C@H](NC(=O)[C@H](CC(C)C)NC(=O)[C@H](C)NC(=O)[C@H](Cc1ccccc1)NC(=O)c1ccc(C(C)(C)C)cc1)C(=O)N[C@@H](CO)C(=O)NCCOCCOCCOCCOCCOCCNC(=O)c1nc(NC(=O)CCNC(=O)c2cc(NC(=O)c3nc(NC(=O)CCCNC(=O)c4cc(NC(=O)c5nc(NC(=O)c6cc(NC(=O)c7cccn7C)cn6C)cn5C)cn4C)cn3C)cn2C)cn1C
> 500 nM

*Q* Looking for the measured EC50 of CC(C)C[C@H](NC(=O)[C@H](C)NC(=O)[C@H](Cc1ccccc1)NC(=O)c1ccc(C(C)(C)C)cc1)C(=O)N[C@@H](CCCCN(C)C1CC2CCC1C2)C(=O)N[C@@H](CO)C(=O)NCCOCCOCCNC(=O)c1cc(NC(=O)c2cc(NC(=O)c3nc(NC(=O)c4cc(NC(=O)[C@@H](N)CCNC(=O)c5nc(NC(=O)c6cc(NC(=O)c7cc(NC(=O)c8nccn8C)cn7C)cn6C)cn5C)cn4C)cn3C)cn2C)cn1C (stereo partly shown) , can you help?
*A* > 500 nM

*Q* Looking for the measured EC50 of CCN(CC)CCCC[C@H](NC(=O)COCCOCCOCCNC(=O)c1ccc(C(C)(C)C)cc1)C(=O)N[C@@H](CO)C(=O)NCCOCCOCCOCCOCCOCCNC(=O)CCNC(=O)c1nc(NC(=O)c2cc(NC(=O)CCNC(=O)c3nc(NC(=O)CCCNC(=O)c4cc(NC(=O)c5nc(NC(=O)CCNC(=O)c6cc(NC(=O)c7nccn7C)cn6C)cn5C)cn4C)cn3C)cn2C)cn1C , can you help?
*A* 100 to 500 nM

*Q* Looking for the measured EC50 of CC(C)C[C@H](NC(=O)[C@H](C)NC(=O)[C@H](Cc1ccccc1)NC(=O)c1ccc(C(C)(C)C)cc1)C(=O)N[C@@H](CCCCN(C)C1CC2CCC1C2)C(=O)N[C@@H](CO)C(=O)NCCOCCOCCOCCOCCOCCNC(=O)c1cc(NC(=O)c2cc(NC(=O)c3nc(NC(=O)c4cc(NC(=O)[C@@H](N)CCNC(=O)c5nc(NC(=O)CCNC(=O)c6cc(NC(=O)c7nccn7C)cn6C)cn5C)cn4C)cn3C)cn2C)cn1C (stereo partly shown) , can you help?
*A* > 500 nM

*Q* Looking for the measured EC50 of CCCNC(=O)CCNC(=O)c1nc(NC(=O)c2nc(NC(=O)CCNC(=O)c3nc(NC(=O)[C@@H](CCNC(=O)c4cc(NC(=O)c5nc(NC(=O)CCNC(=O)c6cc(NC(=O)c7nccn7C)cn6C)cn5C)cn4C)NC(=O)COCCOCCOCCOCCOCCNC(=O)[C@H](CO)NC(=O)[C@H](CCCCN(CC)CC)NC(=O)[C@H](CC(C)C)NC(=O)[C@H](C)NC(=O)[C@H](Cc4ccccc4)NC(=O)c4ccc(C(C)(C)C)cc4)cn3C)cn2C)cn1C , can you help?
*A* < 100 nM

====

# System: Myotonic Dystrophy 1 affected patient fibroblasts (Coriell GM04602; 1600 CTG repeats)
# METHOD: DM1 foci reduction assay (CAG10-Cy3 FISH, average foci per nucleus)
# Format: cell-based
# STATED CONDITIONS: Homo sapiens, Fibroblast, 48 h, read-out: Foci Reduction in Fibroblast EC50, 48 h (nM)
ENDPOINT LABEL: EC50

*Q* Looking for the measured EC50 of CCN(CC)CCCC[C@H](NC(=O)[C@H](CC(C)C)NC(=O)[C@H](C)NC(=O)[C@H](Cc1ccccc1)NC(=O)c1ccc(C(C)(C)C)cc1)C(=O)N[C@@H](CO)C(=O)NCCOCCOCCOCCOCCOCCNC(=O)c1cc(NC(=O)c2nc(NC(=O)c3cc(NC(=O)[C@H](CCNC(=O)c4nc(NC(=O)CCNC(=O)c5cc(NC(=O)c6nccn6C)cn5C)cn4C)NC(C)=O)cn3C)cn2C)cn1C [Compound 117] , can you help?
*A* > 500 nM

====

# Test system: Myotonic Dystrophy 1 affected patient fibroblasts (Coriell GM04602; 1600 CTG repeats)
# METHOD: DM1 foci reduction assay (CAG10-Cy3 FISH, average foci per nucleus)
# Format: cell-based
# STATED CONDITIONS: Homo sapiens, Fibroblast, 48 h, read-out: Foci Reduction in Fibroblast EC50, 48 h (nM)
ENDPOINT LABEL: EC50

*Q* Looking for the measured EC50 of CCN(CC)CCCC[C@H](NC(=O)N1CC(c2cnc(CNC(=O)c3ccc(C(C)(C)C)cc3)[nH]2)C1)C(=O)N[C@@H](CO)C(=O)NCCOCCOCCOCCOCCOCCNC(=O)CCNC(=O)c1nc(NC(=O)c2cc(NC(=O)CCNC(=O)c3nc(NC(=O)CCCNC(=O)c4cc(NC(=O)c5nc(NC(=O)CCNC(=O)c6cc(NC(=O)c7nccn7C)cn6C)cn5C)cn4C)cn3C)cn2C)cn1C , can you help?
*A* 100 to 500 nM

*Q* Looking for the measured EC50 of CCN(CC)CCCC[C@H](NC(=O)[C@H](CC(C)C)NC(=O)[C@H](C)NC(=O)[C@H](Cc1ccccc1)NC(=O)c1ccc(C(C)(C)C)cc1)C(=O)N[C@@H](CO)C(=O)NCCOCCOCCOCCOCCOCCNC(=O)c1nc(NC(=O)CCNC(=O)c2cc(NC(=O)c3nc(NC(=O)[C@@H](CCNC(=O)c4cc(NC(=O)c5nc(NC(=O)c6cc(NC(=O)c7cccn7C)cn6C)cn5C)cn4C)NC(C)=O)cn3C)cn2C)cn1C , can you help?
*A* > 500 nM

*Q* Looking for the measured EC50 of CCN(CC)CCCC[C@H](NC(=O)[C@H](CC(C)C)NC(=O)[C@H](C)NC(=O)[C@H](Cc1ccccc1)NC(=O)c1ccc(C(C)(C)C)cc1)C(=O)N[C@@H](CO)C(=O)NCCNC(=O)CCNC(=O)c1nc(NC(=O)c2cc(NC(=O)CCNC(=O)c3nc(NC(=O)CCCNC(=O)c4cc(NC(=O)c5nc(NC(=O)CCNC(=O)c6cc(NC(=O)c7nccn7C)cn6C)cn5C)cn4C)cn3C)cn2C)cn1C , can you help?
*A* < 100 nM

*Q* Looking for the measured EC50 of CCN(CC)CCCC[C@H](NC(=O)[C@H](CC(C)C)NC(=O)[C@H](C)NC(=O)[C@H](Cc1ccccc1)NC(=O)c1ccc(C(C)(C)C)cc1)C(=O)N[C@@H](CO)C(=O)NCCOCCOCCOCCOCCOCCNC(=O)c1nc(NC(=O)CCNC(=O)c2cc(NC(=O)c3nc(NC(=O)[C@H](N)CCNC(=O)c4cc(NC(=O)c5nc(NC(=O)c6cc(NC(=O)c7cccn7C)cn6C)cn5C)cn4C)cn3C)cn2C)cn1C , can you help?
*A* 100 to 500 nM
